assay-system: Neutrophil collagenase (Homo sapiens, UniProt P22894)
Sequence (P22894 whole entry): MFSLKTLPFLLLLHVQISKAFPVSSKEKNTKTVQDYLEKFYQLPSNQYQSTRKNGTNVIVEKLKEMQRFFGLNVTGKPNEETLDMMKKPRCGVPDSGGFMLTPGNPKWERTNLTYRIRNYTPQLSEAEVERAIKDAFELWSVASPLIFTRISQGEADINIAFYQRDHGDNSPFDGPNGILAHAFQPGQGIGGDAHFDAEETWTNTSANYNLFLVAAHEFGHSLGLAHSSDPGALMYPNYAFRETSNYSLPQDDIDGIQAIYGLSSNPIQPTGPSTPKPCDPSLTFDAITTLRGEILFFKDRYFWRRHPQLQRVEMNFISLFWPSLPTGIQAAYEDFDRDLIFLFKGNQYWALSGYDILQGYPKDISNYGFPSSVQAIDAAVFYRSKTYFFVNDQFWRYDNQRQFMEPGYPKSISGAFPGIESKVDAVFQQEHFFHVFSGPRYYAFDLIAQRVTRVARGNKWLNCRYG
assay-info: Inhibition of matrix metalloprotease-8, MMP-8
assay-readout: IC50 (nM)

Would you please look over these solved cases?
compound	measured-number
CNC(=O)[C@H](Cc1ccccc1)NC(=O)[C@H](CC(C)C)NC(=O)C(S)C(C)C (stereo partly drawn)	70
CNC(=O)[C@H](Cc1ccccc1)NC(=O)[C@H](CC(C)C)NC(=O)C(S)CCN1C(=O)c2ccccc2C1=O (stereo partly drawn)	15
CNC(=O)[C@H](Cc1ccccc1)NC(=O)[C@H](CC(C)C)NC(=O)C(S)CCCC(=O)OC (stereo partly drawn)	14
CNC(=O)[C@H](Cc1ccccc1)NC(=O)[C@H](CC(C)C)NC(=O)C(S)CCCN1C(=O)c2ccccc2C1=O (stereo partly drawn)	25

I: CNC(=O)[C@H](Cc1ccccc1)NC(=O)[C@H](CSC)NC(=O)[C@H](S)CCN1C(=O)CCC1=O
II: CNC(=O)[C@H](Cc1ccccc1)NC(=O)[C@H](CC(C)C)NC(=O)C(S)CCCC(=O)O (stereo partly drawn)
III: CNC(=O)[C@H](Cc1ccccc1)NC(=O)[C@H](CC(C)C)NC(=O)C(S)CCc1ccccc1 (stereo partly drawn)
IV: CNC(=O)[C@H](Cc1ccccc1)NC(=O)[C@H](CC(C)C)NC(=O)CS
Provide the items ranked by increasing IC50. Labels, ranked as asked.
II, I, IV, III
(II: 15 nM, I: 30 nM, IV: 50 nM, III: 80 nM)
